Reference source for all entries: PubChem BioAssay (NCI)

test system: 786-0 renal; assay: NCI tumour cell line growth inhibition, 48 h
Reported TGI values are given for each entry in this list.
result.type: TGI

compound: CCOC(=O)CN1C(=O)C(=O)N(c2ccc(OC)c3ccccc23)C1=O
endpoint.result: > 100 µM
--
compound: NC(=O)c1nc(-c2ccc(Cl)c(Cl)c2)nc2ccccc12
endpoint.result: > 100 µM
--
compound: C[C@@H]1Cc2c(ccc3[nH]ncc23)[C@@H](c2ccc(NC3CN(CCCF)C3)cn2)N1CC(F)(F)F
endpoint.result: 28.4 µM
--
compound: CC(C)(CO)CNc1cc(Cl)nc(N)n1
endpoint.result: > 100 µM
--
compound: CCCCCC/C(CC(=O)CCC(=O)NCCc1ccccc1)=N\Nc1ccc([N+](=O)[O-])cc1[N+](=O)[O-]
endpoint.result: > 100 µM
--
compound: CCOC(=O)C1CCCN1C(=O)c1ccccc1Cl (stereo not drawn)
endpoint.result: > 100 µM
--
compound: O=S(=O)(Nc1ccc(Cl)c(Cl)c1)c1ccc(-c2cnc(C3CC3)o2)cc1
endpoint.result: 18.8 µM
--
compound: C=Cc1cc(OC)c2c(c1)c(=O)oc1c2cc(OC)c2c(O)ccc(C3OC(C(C)O)C(O)C3O)c21 (stereo not drawn)
endpoint.result: 0.0192 µM
--
compound: COc1ccc(/N=N/C(=NNC(=O)c2ccc(C)cc2)c2ccc(N(C)C)cc2)cc1
endpoint.result: > 100 µM
--
compound: O=C1C(=Cc2ccc(F)cc2)C(=O)c2ccccc21
endpoint.result: > 100 µM
--
compound: CNC(=O)c1cc(-c2ccc(F)cc2)cc(-c2ccc(S(=O)(=O)N3CCCC3)cc2)c1N
endpoint.result: > 25 µM
--
compound: CCOC(=O)C(=O)Nc1nc2ccc(C)cc2s1
endpoint.result: > 100 µM
--
compound: Nc1c(C(=O)O)nnc2cc(Cl)ccc12
endpoint.result: > 100 µM

###

system: A498 renal; assay: NCI tumour cell line growth inhibition, 48 h
result.type: TGI

molecule: C=C(CN1CCN(c2ccc(F)c(Cl)c2)CC1)c1ccc(C(=O)Nc2ccccc2N)cc1
result.type: TGI
endpoint.result: 44.1 µM

molecule: Cc1cc(O)c(C(C)C)cc1C(=S)Nc1ccc(Cl)cc1
result.type: TGI
endpoint.result: 29.7 µM

molecule: COc1ccc2c(c1)C=CC1C2CC[C@]2(C)C(NC(=O)/C=C/c3ccc(O)c(O)c3)CCC12 (stereo partly specified)
result.type: TGI
endpoint.result: 53.6 µM

molecule: CCOP(=O)(Cc1nc(C#N)c(N)o1)OCC
result.type: TGI
endpoint.result: > 100 µM

molecule: Nc1ncc2c(n1)-c1ccccc1OC2
result.type: TGI
endpoint.result: > 100 µM

molecule: Cc1ccc(C)c2c1n1c(=O)n(C)c(=O)n21
result.type: TGI
endpoint.result: > 100 µM

molecule: CC(C)(C)CC(C)(C)NCC(O)COc1ccc(C(C)(C)c2ccc(OCC(O)CNC(C)(C)CC(C)(C)C)cc2)cc1 (stereo unspecified)
result.type: TGI
endpoint.result: 3.03 µM

molecule: O=C(/C=C/c1ccc(Cl)cc1Cl)c1ccc(Cl)cc1Cl
result.type: TGI
endpoint.result: 48.5 µM

molecule: O=S(=O)(O)c1cc(N=[N+]([O-])c2ccc(N=Nc3ccccc3)cc2S(=O)(=O)O)ccc1/C=C/c1ccc(N=[N+]([O-])c2ccc(N=Nc3ccccc3)cc2S(=O)(=O)O)cc1S(=O)(=O)O
result.type: TGI
endpoint.result: > 100 µM

molecule: CNC(=O)c1cc(-c2ccc(F)cc2)cc(-c2ccc(S(=O)(=O)N3CCCC3)cc2)c1N
result.type: TGI
endpoint.result: > 25 µM

molecule: Nc1c(C(=O)O)nnc2cc(Cl)ccc12
result.type: TGI
endpoint.result: > 100 µM
